growth inhibition reference
Test: NCI Yeast Anticancer Drug Screen. Data for the rad50EPP+ strain (AID 151);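 note: 0% = growth of vehicle-treated control cultures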
Conditions: S. cerevisiae rad50 mutant strain, at 3.7 µM, hits give high values
About 79,000 compounds went through this panel and 15% of them were active in at least one assay; those are over-represented in the sample as a whole.

compound | unit.abbrev | growth inhibition
O=S(=O)(O)c1ccc2c(N=Nc3c(O)ccc4ccccc34)cccc2c1 | % | -1
Cc1c(N=Nc2ccc(Cl)cc2)c(C)n(C2OC(CO)C(O)C(O)C2O)c(=S)c1C#N (centres undefined) | % | 19
CSc1ccc2c(c1)C(N1CCN(C)CC1)Cc1ccccc1S2 (centres undefined) | % | -45
O=C(O)NCC1CCCCC1 (tested in a mixture with another compound) | % | -4

----------
Experiment: NCI Yeast Anticancer Drug Screen. Data for the mlh1 strain (AID 171);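 note: 0% = growth of vehicle-treated control cultures of the same strain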
Settings: S. cerevisiae mlh1 strain growth inhibition; at 33.0 µM; hits give high values
Compounds without any hit were thinned out: in the full panel of roughly 79,000, 15% have a hit. Starred links: 1 amine or outer side, 2 acyl side, 3 side chain; linkers in the order of their positions; H or OH if unused. Positions of bridges follow the written chain, without caps; N, C: chain ends. Non-standard residues stand in square brackets, D forms with d. Residues, ends and D or L forms follow the SMILES beside them. Chains are numbered I, II in the order given. Actinocin(9to1) = Cc1c2oc3c(C)ccc(C(=O)[*:1])c3nc-2c(C(=O)[*:2])c(N)c1=O; aThr = C[C@H](O)[C@H](N)C(=O)O; NMeV = CN[C@H](C(=O)O)C(C)C; Sar = CNCC(=O)O
Assign t to entries whose growth inhibition meets or exceeds 30%; assign f to the rest.

compound | assigned.category
Nc1ccc2cc(Br)c3ccccc3c2c1 | f
CNc1ccc2[nH]c3ccccc3c2c1 | f
COc1ccc(CCN2C(=O)C=CC2=O)cc1OC | t
O=C(O)NCC1CCCCC1 (tested in a mixture with another compound) | f
CC1=NN(C(=O)CC(=O)N(C(=O)c2ccccc2)c2ccc(Cl)cc2)C(=O)C1N=Nc1ccc([N+](=O)[O-])cc1 (centres undefined) | t
Cc1[nH]nc(C(F)(F)F)c1N=NN(C)C | t
Cc1c2oc3c(C)ccc(C(=O)N[C@@H]4C(=O)N[C@H](C(C)C)C(=O)N5CCC[C@H]5C(=O)N(C)CC(=O)N(C)[C@@H](C(C)C)C(=O)O[C@H]4C)c3nc-2c(C(=O)N[C@@H]2C(=O)N[C@H](C(C)C)C(=O)N3CCC[C@H]3C(=O)N(C)CC(=O)N(C)[C@@H](C(C)C)C(=O)O[C@H]2C)c(N)c1=O (I: [aThr][dV]P[Sar][NMeV] / II: [aThr][dV]P[Sar][NMeV]; ester I:1-I:C, II:1-II:C; linker I:N-II:N via Actinocin(9to1)) | t
O=C1OC(/C=C/c2ccccc2)Sc2ccccc21 (centres undefined) | f
COc1ccc2cc(CN3CCC(C4CCN(Cc5ccc6cc(OC)ccc6c5)CC4)CC3)ccc2c1 | f
Cc1ccc(P(c2ccc(C)cc2)c2ccc(C)cc2)cc1 | f
CC(C)c1ccc(C2NC(=S)NC3=C2c2ccccc2C3=O)cc1 (centres undefined) | f
O=C(CCC(=O)c1ccc(O)cc1)Oc1ccc(O)cc1 | f
COc1ccc(C(=O)NCCN(C)C)c2nc3ccccc3cc12 | f
CN(C)c1ccc(/C=C/c2ccnc3ccc4ccccc4c23)cc1 | t
NNc1nnc(-c2ccccc2)nc1Cc1ccccc1 | t
Cc1ccc2nc(N/N=C/c3ccc(C)s3)cc(C)c2c1 | t
COc1ccc(/C=C2\CCc3ccccc3C2=O)cc1OC | t
CC[C@@]1(OC(=O)CN(C)C)C(=O)OCc2c1cc1n(c2=O)Cc2cc3ccccc3nc2-1 | t
c1ccc(C2=NNC3c4ccccc4-c4ccccc4N3C2)cc1 (centres undefined) | f

----------
Test: NCI Yeast Anticancer Drug Screen. Data for the wt1 strain (AID 149);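 note: 0% = growth of vehicle-treated wt1 cultures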
Conditions: S. cerevisiae wt1 strain (SPY 50644) growth inhibition; at 11.0 µM; hits give high values
The panel holds about 79,000 compounds, 15% with a hit somewhere; the sample as a whole holds those more often.
growth inhibition reference

compound | growth inhibition [%]
C[n+]1c(-c2ccc(NC(=O)c3ccc(C(=O)Nc4ccc(-c5cn6ccccc6[n+]5C)cc4)cc3)cc2)cn2ccccc21 | 13
Cc1ccc(P(c2ccc(C)cc2)c2ccc(C)cc2)cc1 | -5
[N-]=[N+]=NC1CC(n2ccc(=O)[nH]c2=O)OC1COC(c1ccccc1)(c1ccccc1)c1ccccc1 (centres undefined) | 11
c1ccc(C2=NNC3c4ccccc4-c4ccccc4N3C2)cc1 (centres undefined) | -3
c1cncc(C(Nc2cccc3cccnc23)Nc2cccc3cccnc23)c1 | 1
CCCCCC/C(C)=N/Nc1ccc([N+](=O)[O-])cc1[N+](=O)[O-] | 4
Cc1cnc(/C=N\NC(N)=S)c2cccc(N)c12 | -36
CC(=O)CC[N+](C)(C)C | 2
O=c1[nH]c(=O)n(CCCO)cc1F | -9
CCN(CC)c1ccc(N=Nc2cc(S(=O)(=O)O)ccc2O)c(O)c1 | 20
Cc1ccc(S(=O)(=O)N/N=C/c2c(O)ccc3ccccc23)cc1 | 37
COc1ccc2nc(N/N=C/c3sccc3C)cc(C)c2c1 | -6
Cc1c2ccncc2c(C)c2c1oc1ccccc12 | 10
CC(=O)c1ccc(NCN2C(=O)c3ccccc3C2=O)cc1 | -36
CC1=Cc2ccc(C)cc2C(=O)C1=O | 41
O=C(CSS(=O)(=O)O)c1ccccc1 | 2
Nc1ccc2cc(Br)c3ccccc3c2c1 | -2
Cc1cc(NC(=S)SCc2ccc(Cl)cc2)ccc1Cl | 63
CNc1ccc2[nH]c3ccccc3c2c1 | 1
O=C1C(Br)=CC(Br)(Br)C=C1Br | 47
O=C1C=CC(=Nc2ccc3c(c2)Cc2cc(Cl)ccc2-3)O1 | 56
Cc1cc(N(CCOS(C)(=O)=O)CCOS(C)(=O)=O)ccc1C=O | 32
OC(c1ccc(Br)cc1)(c1cccs1)C1CC1 (centres undefined) | 17
CN(NC(=O)/C(=C/C=C/c1ccccc1)NC(=O)c1ccccc1)C1=C(Cl)C(=O)[N+](c2ccccc2)=CC1 | 15
CN(C)c1ccc(C(c2ccc(Cl)cc2)c2ccc(N(C)C)cc2)cc1 | 28
Nc1ccc2ncc(Nc3ccc(Cl)c(Cl)c3)nc2c1 | 49
CCOC(=O)/C(O)=C(/C=N/C(=S)Nc1c(CC)cccc1CC)C(=O)OCC | 2
Cn1c(COc2ccc(/C=N/NC(=O)CCC(=O)N/N=C/c3ccc(OCc4c[n+]5ccccc5n4C)cc3)cc2)c[n+]2ccccc12 | 11
CCOC(=O)c1sc2[n+](c1C)C(=O)/C(=C/c1cc(OC)c(OC)c(OC)c1)S2 | 9
CCCCCCCCCC/C=C\CC(=O)O | -3
Cc1cc(NCCCN(C)C)c2ccc3c(ccc4c(NCCCN(C)C)cc(C)nc43)c2n1 | 15
COc1cc(C(C)C(C(=O)O)C(=O)C(=O)O)cc(OC)c1OC (centres undefined) | 3
Nc1cccc2cc(Cl)cnc12 | -28
O=c1oc(C(C(F)(F)F)C(F)(F)F)nc2ccccc12 | 20
COc1ccc(/C=C2\S/C(=N/Nc3nc(-c4ccccc4)cs3)NC2=O)cc1OC | 97
CCN(CC)CCSc1c2ccccc2nc2cc(NCC(=O)Nc3ccccc3-c3ccccc3NC(=O)CNc3ccc4c(SCCN(CC)CC)c5ccccc5nc4c3)ccc12 | -25
Cc1nc2ccc(NCCN(C)C)c3c(=O)c4ccccc4n1c23 | 37
CCOC(=O)c1[nH]c2cccc3c2c1CC(Br)C3=O (centres undefined) | -3
CCOc1nc(OCC)nc(-c2cccn2-c2ccccc2)n1 | -13
CC1(C)CC(=O)C(C(CC(c2ccccc2)c2cc3c(cc2O)OCO3)C2=C(O)CC(C)(C)CC2=O)=C(O)C1 (centres undefined) | 22
CCCCCC(=O)C(C)(c1nc2n(c1O)/C(=N/C(=O)Nc1ccc(Cl)cc1)N=N2)c1nc2n(c1O)/C(=N/C(=O)Nc1ccc(Cl)cc1)N=N2 | -3
c1cc2ccc3cc4ncccc4c4ccc(c1)c2c34 | 9
CN(C)CCNC(=O)c1cccc2nc3c(ccc4ccccc43)nc12 | 2
[Cl][Pt+2][Cl].[NH-]CC1(C[NH-])CCCCC1 | 99

----------
growth inhibition reference
Assay: NCI Yeast Anticancer Drug Screen. Data for the rad50 strain (AID 155);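 note: 0% = growth of vehicle-only cultures of the same strain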
Conditions: S. cerevisiae rad50 strain growth inhibition; at 50.0 µM (retest, dose inferred, filed as 5.0); hits give high values
The panel holds about 79,000 compounds, 15% with a hit somewhere; the sample as a whole holds those more often.

compound | growth inhibition, %
N#C/C(=C1C=C/C(=N\O)C(Cl)=C\1)c1ccccc1 | 76
C=Cc1c(C)c(O)cc2c1-c1ccc(O)c(C)c1CC2 | 75
CN(C)N=Nc1ccc(NC=O)cc1 | 67
CCOC(=O)c1[nH]c2cccc3c2c1CC(Br)C3=O (stereo unspecified) | 92
CCCC(=O)OC(OC(=O)CCC)c1ccc([N+](=O)[O-])o1 | 34
CC[N+]1(C)CCC(O)(/C=C/c2ccc(Cl)c(Cl)c2)C(C(=O)/C=C/c2ccc(Cl)c(Cl)c2)C1 (stereo unspecified) | 98
O=c1oc(C(C(F)(F)F)C(F)(F)F)nc2ccccc12 | 72
Cc1nc2ccccc2c(=O)n1NC(=O)c1ccc(CS)cc1 | 9
Cc1ccc(C(C)C)c(C(=C2C=CC(=[N+](C)C)C=C2)c2c(C(C)C)ccc(C)c2O)c1O | 93
CCN(CC)c1ccc(N=Nc2cc(S(=O)(=O)O)ccc2O)c(O)c1 | 73
O=C(Nn1c(-c2ccccc2)nc2ccccc2c1=O)c1ccc(Cl)cc1 | 68
